- Test system: adherent PBMNC
- Assay Explanation: Cell counts and viability of plastic adherent cells cultured with non-cytokine additives in polystyrene plates
- Type: cell-based, human
- Assay Conditions: Day 4, with GM-CSF present
Each entry below carries its reported TOTAL CELLS.

{"Compound": "CC1=C(/C=C/C(C)=C/C=C/C(C)=C/C(=O)O)C(C)(C)CCC1 [Ret Acid]", "TOTAL CELLS [E + 05]": 1.21}
{"Compound": "C=C1CCC(O)CC1=CC=C1CCCC2(C)C1CCC2C(C)CCCC(C)C (stereo not shown) [Vit D3]", "TOTAL CELLS [E + 05]": 1.95}
{"Compound": "CCCCCCCCCCCCCC(=O)O[C@@H]1[C@@H](C)[C@@]2(O)[C@@H](C=C(CO)C[C@]3(O)C(=O)C(C)=C[C@@H]23)[C@@H]2C(C)(C)[C@]12OC(C)=O [PMA, Phorbol Myristate Acetate]", "TOTAL CELLS [E + 05]": 1.45}
{"Compound": "[F-].[Na+] [NaF, Sodium Fluoride]", "TOTAL CELLS [E + 05]": 1.90}
{"Compound": "Nc1ncnc2c1ncn2[C@@H]1O[C@@H]2COP(=O)(O)O[C@H]2[C@H]1O [cAMP, Cyclic Adenosine Monophosphate]", "TOTAL CELLS [E + 05]": 2.02}
{"Compound": "CNc1ccc2oc(CC3OC4(CCC3C)OC(C(C)C(=O)c3ccc[nH]3)C(C)CC4C)nc2c1C(=O)O (stereo not shown) [Ca + + Iono]", "TOTAL CELLS [E + 05]": 1.66}
{"Compound": "Cc1c(C)c2c(c(C)c1O)CCC(C)(CCCC(C)CCCC(C)CCCC(C)C)O2 (mixture of isomers) [Vit E]", "TOTAL CELLS [E + 05]": 1.38}

---

- Test system: adherent PBMNC
- Assay Explanation: DC morphology (Wright-Geimsa) of plastic adherent cells cultured with non-cytokine additives
- Format: cell-based, human
- Assay Conditions: Day 7, with GM-CSF present
In this section, each of the compounds is paired with its reported % DC.

{"Compound": "Nc1ncnc2c1ncn2[C@@H]1O[C@@H]2COP(=O)(O)O[C@H]2[C@H]1O [cAMP, Cyclic Adenosine Monophosphate]", "% DC [%]": 0.00}
{"Compound": "Cn1c(=O)c2[nH]cnc2n(C)c1=O", "% DC [%]": 3.50}
{"Compound": "CCCC(=O)Nc1ncnc2c1ncn2[C@@H]1O[C@@H]2COP(=O)(O)O[C@H]2[C@H]1OC(=O)CCC", "% DC [%]": 2.50}
{"Compound": "Cc1c(C)c2c(c(C)c1O)CCC(C)(CCCC(C)CCCC(C)CCCC(C)C)O2 (mixture of isomers)", "% DC [%]": 6.00}
{"Compound": "CCCCCCCCCCCCCC(=O)O[C@@H]1[C@@H](C)[C@@]2(O)[C@@H](C=C(CO)C[C@]3(O)C(=O)C(C)=C[C@@H]23)[C@@H]2C(C)(C)[C@]12OC(C)=O [PMA, Phorbol Myristate Acetate]", "% DC [%]": 0.00}
{"Compound": "CCCCC[C@H](O)/C=C/[C@H]1[C@H](O)CC(=O)[C@@H]1CCCCCCC(=O)O [PGE, Prostaglandin E1]", "% DC [%]": 5.50}

---

- System: adherent PBMNC
- Assay Explanation: DC morphology (Wright-Geimsa) of plastic adherent cells cultured with non-cytokine additives
- Assay type: cell-based, human
- Assay Conditions: Day 7, without GM-CSF
Listing: % DC of selected molecules

{"Molecule": "[F-].[Na+] [NaF, Sodium Fluoride]", "Value Unit": "%", "% DC": 0.00}
{"Molecule": "Cc1c(C)c2c(c(C)c1O)CCC(C)(CCCC(C)CCCC(C)CCCC(C)C)O2 (mixture of isomers)", "Value Unit": "%", "% DC": 3.00}
{"Molecule": "CCCCC/C=C\\C/C=C\\CCCCCCCC(=O)O", "Value Unit": "%", "% DC": 6.00}
{"Molecule": "C=C1CCC(O)CC1=CC=C1CCCC2(C)C1CCC2C(C)CCCC(C)C (stereo not shown)", "Value Unit": "%", "% DC": 0.50}
{"Molecule": "Nc1ncnc2c1ncn2[C@@H]1O[C@@H]2COP(=O)(O)O[C@H]2[C@H]1O [cAMP, Cyclic Adenosine Monophosphate]", "Value Unit": "%", "% DC": 0.50}
{"Molecule": "Cn1c(=O)c2[nH]cnc2n(C)c1=O", "Value Unit": "%", "% DC": 0.00}
{"Molecule": "CCCCCCCCCCCCCC(=O)O[C@@H]1[C@@H](C)[C@@]2(O)[C@@H](C=C(CO)C[C@]3(O)C(=O)C(C)=C[C@@H]23)[C@@H]2C(C)(C)[C@]12OC(C)=O [PMA, Phorbol Myristate Acetate]", "Value Unit": "%", "% DC": 1.00}

Data origin, for the record: patent US6458585B1
